- assayedSystem: BChE from equine serum (Equus caballus, UniProt P81908)
- Construct: BChE from equine serum
- Sequence (P81908 whole entry): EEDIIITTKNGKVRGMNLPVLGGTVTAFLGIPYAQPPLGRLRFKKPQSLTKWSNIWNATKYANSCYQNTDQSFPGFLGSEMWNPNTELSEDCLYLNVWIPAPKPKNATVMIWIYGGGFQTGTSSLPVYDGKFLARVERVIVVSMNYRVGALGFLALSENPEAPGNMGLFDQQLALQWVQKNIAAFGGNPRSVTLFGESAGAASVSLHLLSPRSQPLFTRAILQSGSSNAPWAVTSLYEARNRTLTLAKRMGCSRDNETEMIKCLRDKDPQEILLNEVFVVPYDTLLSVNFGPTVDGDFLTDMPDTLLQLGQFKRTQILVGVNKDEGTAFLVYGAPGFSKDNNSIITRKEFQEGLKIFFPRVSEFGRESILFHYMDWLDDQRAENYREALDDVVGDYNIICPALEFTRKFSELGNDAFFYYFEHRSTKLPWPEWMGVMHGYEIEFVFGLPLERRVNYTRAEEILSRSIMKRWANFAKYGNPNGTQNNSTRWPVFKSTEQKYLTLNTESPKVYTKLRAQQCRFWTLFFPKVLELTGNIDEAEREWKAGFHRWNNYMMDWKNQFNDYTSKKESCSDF
- methodSummary: BChE inhibition assay (Ellman, BTCI) and kinetics
pIC50: −log10 of the molar value.
Give pIC50 for every item shown.

-- ask Supply reported pIC50 belonging to this compound: O=C(/C=C/c1ccc(O[C@@H]2O[C@H](CO)[C@@H](O)[C@H](O)[C@H]2O)cc1)c1ccc(O)cc1O
-- reply < 4.40

-- ask Supply reported pIC50 belonging to this compound: O=C1C[C@@H](c2ccc(O[C@@H]3O[C@H](CO)[C@@H](O)[C@H](O)[C@H]3O)cc2)Oc2cc(O)ccc21
-- reply < 4.40

-- ask Supply reported pIC50 belonging to this compound: O=C1C[C@@H](c2ccc(O)cc2)Oc2cc(O)ccc21
-- reply < 4.40

-- ask Supply reported pIC50 belonging to this compound: COc1c(CC=C(C)C)c(O)cc2oc(=O)c3c4ccc(O)cc4oc3c12
-- reply 5.14
